Collected protein stability index values appear next to each entry.
B1: VAMP4 (parent)
chain: FLRGPSGPRFGPRNDKIKHVQNQV

variants of: B1; assay: protein stability index of a GFP-peptide fusion (GPS, HEK-293T) (PSI 1-6); higher = more stable; conditions: c terminus: a fixed tail appended;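 further: lentivirally expressed fusions sorted by FACS into six bins by GFP to DsRed ratio, PSI derived from sequencing read proportions per bin multiplied by bin number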

RESIDUES	protein stability index
FLRGPSGPRFGPRNDKITHVQNQV [K18T]	2.47
FLRGPSGPRFWPRNDKIKHVQNQV [G11W]	2.45
FLRGPSGPRFGPRSDKIKHVQNQV [N14S]	2.67
FYRGPSGPRFGPRNDKIKHVQNQV [L2Y]	2.61
FLAGPSGPRFGPRNDKIKHVQNQV [R3A]	2.54
FLRGPSGARFGPRNDKIKHVQNQV [P8A]	2.62
FLRGPSGPRFGPRNDKIKHVQNRV [Q23R]	2.87
FLRFPSGPRFGPRNDKIKHVQNQV [G4F]	2.47
FVRGPSGPRFGPRNDKIKHVQNQV [L2V]	1.48
FLRGPSGPRFGDRNDKIKHVQNQV [P12D]	3.08
FLRGPSGPRFGPRNTKIKHVQNQV [D15T]	2.26
FLRGPSGPRFVPRNDKIKHVQNQV [G11V]	1.97
FLRGPSGPRFGPRNYKIKHVQNQV [D15Y]	2.1
FLRGPSAPRFGPRNDKIKHVQNQV [G7A]	2.69
FLRGPSGPRFGPRQDKIKHVQNQV [N14Q]	2.91
FHRGPSGPRFGPRNDKIKHVQNQV [L2H]	1.95
FLRGPSGPRFGPRDDKIKHVQNQV [N14D]	2.96
FLRGPSGPRFGPRNDHIKHVQNQV [K16H]	2.48
FLRGPSGPRFGPRNAKIKHVQNQV [D15A]	2.6
FLRGPSGPRFGPRNLKIKHVQNQV [D15L]	2.17
FLRGPSGPRFGPRNDKIKHVQNMV [Q23M]	2.2
FLRGPSGPRFGPRNDCIKHVQNQV [K16C]	2.18
DLRGPSGPRFGPRNDKIKHVQNQV [F1D]	3.75
FLRGPSGPRKGPRNDKIKHVQNQV [F10K]	2.57
FLRGPSGPRFGPRNPKIKHVQNQV [D15P]	3.23
FLRGPSGPRFGPRNDKIKHVQMQV [N22M]	1.57
FLRGPSGPRFGPKNDKIKHVQNQV [R13K]	2.58
FLRGPSGPRFGPRTDKIKHVQNQV [N14T]	2.7
FLRGPSGPRFGPRNDKIEHVQNQV [K18E]	3.06
FLRGPSGPRFGPRNDKIKHVQNQL [V24L]	2.67
FGRGPSGPRFGPRNDKIKHVQNQV [L2G]	2.87
FLRGPSGPRFGPRMDKIKHVQNQV [N14M]	2.15
FLRGPSGPRFGPPNDKIKHVQNQV [R13P]	3.06
FLRGPSGPRFGPRNDKAKHVQNQV [I17A]	2.88
FLRGPSGPIFGPRNDKIKHVQNQV [R9I]	2.17
FLRGPSGPRFGPGNDKIKHVQNQV [R13G]	2.74
FLRGPHGPRFGPRNDKIKHVQNQV [S6H]	2.45
FLRGPEGPRFGPRNDKIKHVQNQV [S6E]	3.94
ELRGPSGPRFGPRNDKIKHVQNQV [F1E]	3.6
FLRGPSGPRFGPRNDKFKHVQNQV [I17F]	2.81
FLRGPSGPRPGPRNDKIKHVQNQV [F10P]	3.02
FLRGPSGPRFGPRNDKIKWVQNQV [H19W]	1.57
FLRGPSGPRFGIRNDKIKHVQNQV [P12I]	2.87
FLRGPSGPRFGPRNDKIKMVQNQV [H19M]	2.6
FLRGPSGPRFGPRNDSIKHVQNQV [K16S]	2.81
FLRGPSGPRFGPMNDKIKHVQNQV [R13M]	2.89
FLRGPSGPRFGPRLDKIKHVQNQV [N14L]	2.55
FLRGPSGPRFGPRNDKIKHVQNQD [V24D]	3.4
FLRGPSGPRGGPRNDKIKHVQNQV [F10G]	2.89
FLRGPNGPRFGPRNDKIKHVQNQV [S6N]	2.43
FLRGPSGPRFGPRNDKIKHVWNQV [Q21W]	1.41
FLRGPSGPRFGPRNDKCKHVQNQV [I17C]	2.87
FLRGPSGGRFGPRNDKIKHVQNQV [P8G]	2.41
FLRGPSGPRFGPRNDKIRHVQNQV [K18R]	1.75
FLRGPSGPRFGPRNDKIPHVQNQV [K18P]	3.1
FLRGPSGPRFGLRNDKIKHVQNQV [P12L]	2.2
FLRGPSRPRFGPRNDKIKHVQNQV [G7R]	1.71
FLRGPSGPRFCPRNDKIKHVQNQV [G11C]	2.37
FLRGPSGPRFGPRNDKIKHCQNQV [V20C]	2.15
FLRGPSGPHFGPRNDKIKHVQNQV [R9H]	2.28
FLRGPSGKRFGPRNDKIKHVQNQV [P8K]	2.07
FLRGPSGPRFGPRNDKIAHVQNQV [K18A]	3.24
FLRGPTGPRFGPRNDKIKHVQNQV [S6T]	2.77
FLRGPSGPRFGPRNDKILHVQNQV [K18L]	1.93
FLRGPSGPRFGPRNDKIKSVQNQV [H19S]	2.7
FLRGPSGPRFGPRVDKIKHVQNQV [N14V]	2.73
FLRGTSGPRFGPRNDKIKHVQNQV [P5T]	2.86
FLNGPSGPRFGPRNDKIKHVQNQV [R3N]	2.93
FLRGPSGPRFGPVNDKIKHVQNQV [R13V]	2.62
FLWGPSGPRFGPRNDKIKHVQNQV [R3W]	2.02
FLRGPSKPRFGPRNDKIKHVQNQV [G7K]	2.32
FCRGPSGPRFGPRNDKIKHVQNQV [L2C]	2.11
ILRGPSGPRFGPRNDKIKHVQNQV [F1I]	3.38
FLRGPSGPRFGPRNDKIMHVQNQV [K18M]	2.27
FLRNPSGPRFGPRNDKIKHVQNQV [G4N]	3.08
FLRGPSGPRFGPRNRKIKHVQNQV [D15R]	2.69
FLRGPSGPRFGPRNDQIKHVQNQV [K16Q]	3.11
FLRGPIGPRFGPRNDKIKHVQNQV [S6I]	1.97
FLRGPSGPRFGPRNDKIKHIQNQV [V20I]	2.69
FLRGFSGPRFGPRNDKIKHVQNQV [P5F]	2.29
FLRGPSGPRFGPRWDKIKHVQNQV [N14W]	2.25
FLRGPSGPRFGPRNDPIKHVQNQV [K16P]	2.76
